# measurement_notes: Levels of PCB 95 and its hydroxylated metabolites in adipose, blood, brain and liver 24 h after a single oral dose (GC-MS/MS)
# Assay type: in vivo, mice
# condition_summary: male, CYP2A6-humanized (KI), mouse, liver, po, 1 mg/kg, MKI, male CYP2A6-humanized mice, single oral PCB 95 1.0 mg/kg, mean ± SD, read-out: Levels in liver
Please use Satisfied for concentration at 24 h under 2 ng/g and Not satisfied for everything else, ties included.

See these solved cases before continuing.
>>> print(df.to_string())
                                   compound  category_label
0  Oc1c(O)c(Cl)c(-c2cc(Cl)ccc2Cl)c(Cl)c1Cl [4,5-95, 2,2',3,5',6-pentachlorobiphenyl-4,5-diol]       Satisfied
1  Oc1cc(Cl)c(-c2c(Cl)ccc(Cl)c2Cl)cc1Cl [4'-95]   Not satisfied

Below 2 ng/g on concentration at 24 h? Entry Oc1cc(Cl)c(Cl)c(-c2cc(Cl)ccc2Cl)c1Cl [5-95, 2,2',3,5',6-pentachlorobiphenyl-5-ol] Not satisfied

Below 2 ng/g on concentration at 24 h? Entry Clc1ccc(Cl)c(-c2c(Cl)ccc(Cl)c2Cl)c1 [PCB 95, 2,2′,3,5′,6-pentachlorobiphenyl] Not satisfied

Below 2 ng/g on concentration at 24 h? Entry Oc1cc(Cl)c(-c2cc(Cl)ccc2Cl)c(Cl)c1Cl [4-95, 2,2',3,5',6-pentachlorobiphenyl-4-ol] Satisfied

Below 2 ng/g on concentration at 24 h? Entry Oc1c(Cl)cc(Cl)c(-c2cc(Cl)ccc2Cl)c1Cl [3-103, 2,2',4,5',6-pentachlorobiphenyl-3-ol] Satisfied
